The values you see were collected from patent US20210038607A1.

Molecular target: Recombinant human HDAC6 (Homo sapiens, UniProt Q9UBN7)
Construct: full length, MW=159 kDa; GST (N); host or cells: Sf9 insect cells (baculovirus)
Sequence (Q9UBN7 whole entry): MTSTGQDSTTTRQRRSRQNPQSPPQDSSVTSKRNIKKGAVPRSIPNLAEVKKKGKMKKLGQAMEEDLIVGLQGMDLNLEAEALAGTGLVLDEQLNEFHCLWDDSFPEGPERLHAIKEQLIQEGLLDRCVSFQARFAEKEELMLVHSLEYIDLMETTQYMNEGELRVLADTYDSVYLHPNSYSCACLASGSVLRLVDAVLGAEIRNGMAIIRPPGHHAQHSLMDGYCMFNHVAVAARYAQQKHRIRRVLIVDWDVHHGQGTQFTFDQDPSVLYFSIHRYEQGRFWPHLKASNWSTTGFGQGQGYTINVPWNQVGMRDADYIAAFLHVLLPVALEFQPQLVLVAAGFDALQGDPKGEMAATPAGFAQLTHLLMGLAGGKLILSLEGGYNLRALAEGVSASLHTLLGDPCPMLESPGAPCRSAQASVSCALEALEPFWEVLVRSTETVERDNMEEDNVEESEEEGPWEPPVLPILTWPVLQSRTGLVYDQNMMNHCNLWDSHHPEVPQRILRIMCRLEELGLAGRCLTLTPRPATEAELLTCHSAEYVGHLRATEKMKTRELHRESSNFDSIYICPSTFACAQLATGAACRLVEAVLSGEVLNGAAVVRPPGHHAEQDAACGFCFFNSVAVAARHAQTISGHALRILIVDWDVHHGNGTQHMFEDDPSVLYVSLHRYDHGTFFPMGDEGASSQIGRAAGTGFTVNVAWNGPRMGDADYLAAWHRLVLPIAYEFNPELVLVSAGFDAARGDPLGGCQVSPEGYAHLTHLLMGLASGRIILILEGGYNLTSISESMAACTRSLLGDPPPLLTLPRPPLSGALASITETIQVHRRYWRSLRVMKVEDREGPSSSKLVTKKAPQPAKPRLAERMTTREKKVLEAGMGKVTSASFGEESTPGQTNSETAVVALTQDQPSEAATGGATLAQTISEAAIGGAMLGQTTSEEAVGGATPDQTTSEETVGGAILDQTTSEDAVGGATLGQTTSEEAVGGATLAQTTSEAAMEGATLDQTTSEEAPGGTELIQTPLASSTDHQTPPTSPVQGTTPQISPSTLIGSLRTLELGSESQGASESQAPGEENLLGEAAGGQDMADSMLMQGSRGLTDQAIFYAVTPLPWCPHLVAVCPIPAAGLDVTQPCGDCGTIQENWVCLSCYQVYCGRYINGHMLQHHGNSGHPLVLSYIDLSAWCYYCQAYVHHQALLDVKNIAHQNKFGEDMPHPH
Assay: HDAC6 biochemical assay, AMC-labeled peptide substrate
Conditions: HDAC6; read-out: HDAC Isoform IC50 (nM) 6
Procedure: Activity against all zinc-dependent HDACs 1 to 11 was assessed by using an acetylated AMC-labeled peptide substrate. The substrate RHKK(Ac)AMC was used for HDAC1, HDAC2, HDAC3, HDAC6 and HDAC10; the substrate used for HDAC8 was RHK(Ac)K(Ac)AMC. Activity against the class IIa HDACs (HDAC4, 5, 7, 9) and HDAC11 was determined using a class IIa-specific substrate, BOC-Lys(trifluoroacetyl)-AMC (“Trifluoroacetyl Lysine”; see Lahm et al, 2007, PNAS, 104, 17335-17340). […]
Each record here notes measured IC50.

Solved entries (count: 10):
[
  {
    "compound": "Cc1cc(C)nc(N(Cc2ccc(-c3noc(C(F)(F)F)n3)s2)c2cnccn2)n1 [Example AZ]",
    "IC50": "≤ 10000 nM"
  },
  {
    "compound": "FC(F)(F)c1cncc(N(Cc2ccc(-c3noc(C(F)(F)F)n3)s2)c2cnccn2)c1 [Example AQ]",
    "IC50": "≤ 10000 nM"
  },
  {
    "compound": "FC(F)(F)c1ncc(N(Cc2ccc(-c3noc(C(F)(F)F)n3)s2)c2cnccn2)cn1 [Example CV]",
    "IC50": "≤ 10000 nM"
  },
  {
    "compound": "FC(F)(F)c1cnnc(N(Cc2ccc(-c3noc(C(F)(F)F)n3)s2)c2ccc(C(F)(F)F)nn2)c1 [Example EV]",
    "IC50": "≤ 10000 nM"
  },
  {
    "compound": "FC(F)(F)c1nc(-c2ccc(CN(c3cnccn3)c3cc(N4CCOCC4)cnn3)s2)no1 [Example FP]",
    "IC50": "≤ 500 nM"
  },
  {
    "compound": "Cc1cncc(N(Cc2ccc(-c3noc(C(F)(F)F)n3)s2)c2cncc(C)n2)n1 [Example BX]",
    "IC50": "≤ 10000 nM"
  },
  {
    "compound": "NC(=O)c1cnnc(N(Cc2ccc(-c3noc(C(F)(F)F)n3)s2)c2cnccn2)c1 [Example DX]",
    "IC50": "≤ 500 nM"
  },
  {
    "compound": "[O-][S+]1CCN(Cc2ccc(N(Cc3ccc(-c4noc(C(F)(F)F)n4)s3)c3cnccn3)nn2)CC1 [Example FO]",
    "IC50": "≤ 500 nM"
  },
  {
    "compound": "Cn1cc(-c2ccc(N(Cc3ccc(-c4noc(C(F)(F)F)n4)s3)c3cnccn3)nn2)cn1 [Example DO]",
    "IC50": "≤ 500 nM"
  },
  {
    "compound": "FC(F)(F)c1nc(-c2ccc(CN(c3cnccn3)c3cnccn3)s2)no1 [Example BA]",
    "IC50": "≤ 500 nM"
  }
]

## Input Which IC50 value is on record for CC(=O)Nc1cnnc(N(Cc2ccc(-c3noc(C(F)(F)F)n3)s2)c2cnccn2)c1 [Example FM] ?
## Output ≤ 500 nM

## Input Which IC50 value is on record for FC(F)(F)c1nc(-c2ccc(CN(c3cnccn3)c3cc4nccnc4cn3)s2)no1 [Example AF] ?
## Output ≤ 1000 nM

## Input Which IC50 value is on record for FC(F)(F)c1cnnc(N(Cc2ccc(-c3noc(C(F)(F)F)n3)s2)c2cncnc2)c1 [Example EQ] ?
## Output ≤ 1000 nM
